Source: PubChem BioAssay (NCI)

- Test system: MDA-MB-231 breast
- test.protocol: NCI-60 one-dose screen, 48 h
- condition.parameters: 10 µM
The panel holds about 83,000 compounds, 20% with a hit somewhere; the sample as a whole holds those more often. Active and inactive are the calls of the source. How the source made its calls: active means growth percent below 10; inactive means the rest.
Response enum: True = active, False = inactive

compound: COc1ccc(-c2nc(-c3nc4ccc(C)cc4[nH]3)c3ccccn23)cc1
label: False

compound: N#Cc1c(-c2ccccc2)nc(SCC(=O)N2CCOCC2)[nH]c1=O
label: False

compound: CN(C)CCCN(Cc1ccccc1O)C(=S)Nc1ccc(Cl)cc1
label: False

compound: COc1c(C)c(C)c(OC)c2c1[nH]c(=O)c1c3cccnc3cn21
label: False

compound: COc1nc2c(c(=O)[nH]1)C(c1ccc(Oc3ccnc4cc(Cl)ccc34)c(OC)c1)C=C(c1cc(OC)c(OC)c(OC)c1)N2 (centres undefined)
label: False

Test call for this compound, please: COc1cccc2c1C(=O)c1c(O)c3c(c(O)c1C2=O)C[C@@](O)(C(=O)COC(=O)c1cccnc1)C[C@@H]3OC1CC(N)C(O)C(C)O1 (some centres undefined)
True

In this assay, the call recorded for CCc1cc2n(n1)-c1ncc(C(=O)OC)cc1Oc1ccccc1-2 was what?
False

Assay result, entry CN(C)c1ccc2c(c1)OC(N)=C(C#N)C2c1ccc2c(c1)CCCN2C (centres undefined) — outcome?
False

Can you look up the reported call for CC(=O)Nc1ccc2c(c1)C(N1CC3CCC(CC3)C1)c1ccccc1-2 (centres undefined) for me?
False

* * *

- Tested on: SK-MEL-28 melanoma
- test.protocol: NCI-60 one-dose screen, 48 h
- condition.parameters: 10 µM
- Protocol: Growth inhibition of the SK-MEL-28 human tumor cell line is measured as a screen for anti-cancer activity. Cells are grown in 96 well plates and exposed to the test compound for 48 hours. Compounds are tested at a single concentration, which is 10^-5 M for most compounds. The reported endpoint is percent growth (GI% or GIPRCNT), where numbers from 0 - 100% represent growth inhibition, and numbers from -100% - 0 represent cell death. For example, a value of 40 represents 60% growth inhibition. […]
Compounds without any hit were thinned out: in the full panel of roughly 83,000, 20% have a hit. Calls of active or inactive are those of the source. How the source made its calls: active means growth percent below 10; inactive means the rest.
Log the outcome using a class from active, inactive

Worked examples follow.
molecule: C[N+]1=C(/C=C/c2ccc(I)cc2)C(C)(C)c2ccccc21
tested.system: SK-MEL-28 melanoma
label: inactive
--
molecule: C[C@H](NC(=O)[C@@H]1CSSC[C@@H](NC(=O)Cc2nc3ccccc3cc2O)C(=O)NCC(=O)N1C)c1ccccc1
tested.system: SK-MEL-28 melanoma
label: inactive
--
molecule: C=C[C@]1(C)C=C2C(=O)[C@@]3(O)OC(=O)[C@@]4(CCCC(C)(C)[C@H]34)[C@@]2(O)CC1
tested.system: SK-MEL-28 melanoma
label: active
--
molecule: COC(=O)c1cnc2c(c1)Oc1ccc(Cl)cc1-c1cc(C)nn1-2
tested.system: SK-MEL-28 melanoma
label: inactive
--
molecule: COc1cc(C2C=C(c3ccc(Cl)c(Cl)c3)N=C3SC(C)=CN32)cc(OC)c1OC (centres undefined)
tested.system: SK-MEL-28 melanoma
label: inactive
--
molecule: COc1ccc(C(C)=O)cc1N1C(=O)C2C(C1=O)C1(c3ccccc3)C(=O)C2(c2ccccc2)C(c2ccc(C)cc2)=C1c1ccc(C)cc1 (centres undefined)
tested.system: SK-MEL-28 melanoma
label: inactive
--
molecule: COc1cc(-c2nc3ccc(C)cc3[nH]2)ccc1OCc1nnc(-c2ccc(CC(C)C)cc2)o1
tested.system: SK-MEL-28 melanoma
label: inactive
--
molecule: CCOC(=O)Nc1ccc2c(c1)C(=O)N(CC)c1ccccc1O2
tested.system: SK-MEL-28 melanoma
label: inactive

Could you now consider this next molecule?
GET /call?item= CC1=CC2OC34COC3CC(OC(=O)C(F)(F)F)C4(C)C2(C)CC1 (centres undefined) returns the recorded outcome of this test.
inactive
